Biological target: TGR (Schistosoma mansoni)
Construct: made in house
Sequence (Q962Y6 1-598): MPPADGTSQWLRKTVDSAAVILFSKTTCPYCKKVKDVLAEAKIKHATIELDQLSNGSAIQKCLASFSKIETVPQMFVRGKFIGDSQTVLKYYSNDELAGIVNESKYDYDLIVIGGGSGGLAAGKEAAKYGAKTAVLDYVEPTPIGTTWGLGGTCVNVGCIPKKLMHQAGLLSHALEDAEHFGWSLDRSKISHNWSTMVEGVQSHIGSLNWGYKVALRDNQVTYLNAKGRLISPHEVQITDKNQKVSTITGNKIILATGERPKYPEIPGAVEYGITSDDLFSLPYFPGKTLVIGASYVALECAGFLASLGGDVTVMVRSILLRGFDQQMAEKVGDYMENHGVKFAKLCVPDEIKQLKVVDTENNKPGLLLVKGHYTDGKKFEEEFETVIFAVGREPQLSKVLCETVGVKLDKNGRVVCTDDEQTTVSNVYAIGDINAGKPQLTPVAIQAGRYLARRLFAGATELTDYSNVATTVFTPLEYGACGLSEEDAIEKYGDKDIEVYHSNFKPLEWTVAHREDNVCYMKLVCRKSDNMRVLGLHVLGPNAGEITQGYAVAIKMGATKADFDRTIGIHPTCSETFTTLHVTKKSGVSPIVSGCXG
Test: Thermal shift assay (TSA)
Type: binding
Conditions: TGR + 100 µM compound + 500 µM NADPH
Record form. Attribute: Avg. Tm, + 500 µM NADPH. Fill in for each entry.
One number for each entry.

Some solved cases for reference:
C[C@@H]1[C@H]2C[C@@H](C[C@H]1NCc1nc3ccccc3n1C1CCCCCC1)C2(C)C [Compound 8] | 70
Cc1oc(-c2ccc3ccccc3c2)nc1CNC1CCCCCC1 [Compound 5] | 73.5
CC1C(NCc2cn(C3OCC(O)C(O)C3O)c3ccccc23)CC2CC1C2(C)C (stereo not shown) [Compound 9] | 68

Moving on to the next molecule.
Request body: readout Avg. Tm, + 500 µM NADPH, system TGR (Schistosoma mansoni), query Cc1oc(-c2ccccc2)nc1CN[C@@H]1C[C@@H]2C[C@H]([C@H]1C)C2(C)C [Compound 3] . Return the value.
73.67

====

Assay: Cytotoxicity in mammalian cells (Cell Titer Glo)
Format: cell-based
Conditions: African green monkey; Vero cells, 5 µM, relative to untreated control
endpoint.name: viability at 24 h, 5 µM (%)
Give bare numbers, in %.

O=C(C1CCCCC1)N1CC(=O)N2CCc3ccccc3C2C1 (stereo not drawn) [PZQ, praziquantel] | 97.1
C[C@@H]1N=C(c2ccccc2Cl)c2cc([N+](=O)[O-])ccc2NC1=O [MZM, meclonazepam, reference compound] | 99.8

Now consider a different compound.
Which measured viability at 24 h, 5 µM value corresponds to CC1C(NCc2cn(C3OCC(O)C(O)C3O)c3ccccc23)CC2CC1C2(C)C (stereo not drawn) [Compound 9] ?
92.7

====

Molecular target: TGR (Schistosoma mansoni, UniProt Q962Y6)
Construct: made in house
Sequence (Q962Y6 1-598): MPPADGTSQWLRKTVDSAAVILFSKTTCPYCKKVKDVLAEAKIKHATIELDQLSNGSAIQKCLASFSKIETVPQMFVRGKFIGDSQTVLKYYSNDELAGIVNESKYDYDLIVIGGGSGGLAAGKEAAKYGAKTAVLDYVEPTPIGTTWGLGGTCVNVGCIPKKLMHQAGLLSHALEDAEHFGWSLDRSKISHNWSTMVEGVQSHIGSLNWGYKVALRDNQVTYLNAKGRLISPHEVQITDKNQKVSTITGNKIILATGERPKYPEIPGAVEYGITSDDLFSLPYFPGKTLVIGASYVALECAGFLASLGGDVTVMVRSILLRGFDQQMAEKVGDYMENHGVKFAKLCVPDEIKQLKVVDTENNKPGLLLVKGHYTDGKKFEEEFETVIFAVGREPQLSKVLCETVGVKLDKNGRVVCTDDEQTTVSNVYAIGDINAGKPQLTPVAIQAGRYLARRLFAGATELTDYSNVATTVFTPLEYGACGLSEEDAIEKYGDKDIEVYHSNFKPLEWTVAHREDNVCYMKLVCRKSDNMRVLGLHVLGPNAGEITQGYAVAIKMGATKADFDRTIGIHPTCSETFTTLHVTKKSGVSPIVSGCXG
Assay: Time dependence of inhibition
Type: biochemical
Parameters: tested at 50 µM
Details: panel d Time Dependence; 2 hr; average
Please respond with reported avg % inhib, 2 hr for every item in the list.
Give bare numbers, in %.

Reference set (3 entries):
Cc1oc(-c2ccc3c(c2)OCO3)nc1CN[C@@H]1C[C@@H]2C[C@H]([C@H]1C)C2(C)C [Compound 1] | 0.9089
Cc1oc(-c2ccc3ccccc3c2)nc1CNC1CCCCCC1 [Compound 5] | 32.9849
Cc1oc(C2CCCCC2)nc1CN[C@@H]1C[C@@H]2C[C@H]([C@H]1C)C2(C)C [Compound 4] | 45.3087

Next compound, avg % inhib, 2 hr to be filled in.
Query for TGR (Schistosoma mansoni, UniProt Q962Y6): what avg % inhib, 2 hr does the record show for Cc1oc(-c2ccccc2)nc1CN[C@@H]1C[C@@H]2C[C@H]([C@H]1C)C2(C)C [Compound 3] ?
39.6519

====

Target: TGR (Schistosoma mansoni, UniProt Q962Y6)
Construct: made in house
Assay: Thermal shift assay (TSA)
Assay type: binding
Conditions: TGR + 100 µM compound + 500 µM NADPH; single replicates; in °C (unit assumed)
endpoint.name: Tm, replicate 1-3, + 500 µM NADPH
One number for each entry.

Example cases with answers are listed next.
Cc1oc(-c2ccc3ccccc3c2)nc1CNC1CCCCCC1 [Compound 5] | 73.5
C[C@@H]1[C@H]2C[C@@H](C[C@H]1NCc1nc3ccccc3n1C)C2(C)C [Compound 12] | 64
Cc1oc(-c2ccc3c(c2)OCO3)nc1CN[C@@H]1C[C@@H]2C[C@H]([C@H]1C)C2(C)C [Compound 1] | 73.5

Next item in the queue.
Would you kindly share the measured Tm, replicate 1-3, + 500 µM NADPH for Cc1oc(C2CCCCC2)nc1C(=O)N[C@@H]1C[C@@H]2C[C@H]([C@H]1C)C2(C)C [Compound 7] ?
73.5

====

Experiment: Cytotoxicity in mammalian cells (Cell Titer Glo)
Type: cell-based
Conditions: African green monkey; Vero cells, Conc. 5 µM
endpoint.name: viability at 24 h, 5 µM (%)
Answers are plain numbers, in %.

Solved entries:
C[C@@H]1[C@H]2C[C@@H](C[C@H]1NCc1nc3ccccc3n1C1CCCCCC1)C2(C)C | 93.8
Cc1oc(C2CCCCC2)nc1C(=O)N[C@@H]1C[C@@H]2C[C@H]([C@H]1C)C2(C)C | 92
CCc1ccccc1-c1nc(CN[C@@H]2C[C@@H]3C[C@H]([C@H]2C)C3(C)C)c(C)o1 | 99.8
C#CCN(Cc1nc(-c2ccccc2)oc1C)[C@@H]1C[C@@H]2C[C@H]([C@H]1C)C2(C)C | 99

Now for a further molecule.
What measured viability at 24 h, 5 µM goes with Cc1oc(-c2ccc3c(c2)OCO3)nc1CN[C@@H]1C[C@@H]2C[C@H]([C@H]1C)C2(C)C ?
94.7

====

Target: Human GR (Homo sapiens, UniProt P00390)
Construct: made in house
Sequence (P00390 44-522): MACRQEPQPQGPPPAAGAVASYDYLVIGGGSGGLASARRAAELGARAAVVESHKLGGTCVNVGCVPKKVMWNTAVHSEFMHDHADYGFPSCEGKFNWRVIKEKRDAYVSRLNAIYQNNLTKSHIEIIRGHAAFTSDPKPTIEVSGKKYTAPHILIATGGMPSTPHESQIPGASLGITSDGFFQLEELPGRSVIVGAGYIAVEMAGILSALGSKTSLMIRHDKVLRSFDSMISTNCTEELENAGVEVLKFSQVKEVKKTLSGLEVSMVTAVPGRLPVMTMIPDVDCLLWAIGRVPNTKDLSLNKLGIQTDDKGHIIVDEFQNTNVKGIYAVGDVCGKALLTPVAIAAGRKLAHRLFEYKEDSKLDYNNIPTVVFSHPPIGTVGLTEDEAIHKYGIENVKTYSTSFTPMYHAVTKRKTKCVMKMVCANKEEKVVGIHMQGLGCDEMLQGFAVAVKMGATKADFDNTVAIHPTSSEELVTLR
Experiment: Human GR enzyme inhibition (GSSG reduction, NADPH oxidation)
Assay type: biochemical
Details: hGR, 15 minutes pre-incubation, compound 66.7 µM; read-out: % inhibition
Experimental: Recombinant TGR, human TrxR1, B. malayi (Bm)TrxR and human GR proteins were expressed and purified as described[20],[69],[79]. […] The reaction was started with addition of an equal volume of DTNB (6 mM) and NADPH (100 µM) and the increase in A412 during the first 3 min was recorded. […] Activity was initiated with the addition of 1 mM GSSG and 100 μM NADPH and initial rates of NADPH oxidation were monitored at 340 nm. […] The IC50 was calculated in GraphPad Prism.
endpoint.name: inhibition at 66.7 µM

Known results for molecules:
C#CCN(Cc1nc(-c2ccccc2)oc1C)[C@@H]1C[C@@H]2C[C@H]([C@H]1C)C2(C)C [Compound 6] | -0.295%
C[C@@H]1[C@H]2C[C@@H](C[C@H]1NCc1nc3ccccc3n1C1CCCCCC1)C2(C)C [Compound 8] | -0.91%
CCc1ccccc1-c1nc(CN[C@@H]2C[C@@H]3C[C@H]([C@H]2C)C3(C)C)c(C)o1 [Compound 2] | -0.827%
Cc1oc(C2CCCCC2)nc1C(=O)N[C@@H]1C[C@@H]2C[C@H]([C@H]1C)C2(C)C [Compound 7] | -1.12%

Item under review: CC1C(NCc2cn(C3OCC(O)C(O)C3O)c3ccccc23)CC2CC1C2(C)C (centres unmarked) [Compound 9] . Reported inhibition at 66.7 µM?
-1.69%

====

Experiment: Pharmacokinetics, intraperitoneal administration
Type: in vivo, Swiss Webster mice
Conditions: male, Swiss Webster, mouse, plasma, ip; mice, 100 mg/kg i.p., at 30 min
endpoint.name: Cmax (µM)
Numbers only, in µM.

For the 2 molecules below, give their Cmax values.
1. CCc1ccccc1-c1nc(CN[C@@H]2C[C@@H]3C[C@H]([C@H]2C)C3(C)C)c(C)o1
2. Cc1oc(-c2ccc3c(c2)OCO3)nc1CN[C@@H]1C[C@@H]2C[C@H]([C@H]1C)C2(C)C

[4.8, 4.1]
